- MEASURED TARGET: Recombinant human HSD17B13 enzyme (Homo sapiens, UniProt Q7Z5P4)
- ASSAY NAME: HSD17b13 NAD(P)H-Glo biochemical assay
- MEASUREMENT PARAMETERS: 50 uM estradiol, 1 mM NAD+, NAD(P)H-Glo luminescence; read-out: HSD17β13 IC50
pIC50: −log10 of the molar value.

{"COMPOUND": "O=C(NC1CC1)c1ccc2oc(-c3cc(O)c(F)c(F)c3)nc2c1", "pIC50": "4.52 to 6.00"}
{"COMPOUND": "Cn1nc(-c2cc(C(F)(F)F)c(F)c(O)c2F)c2cnc(N3CCC(C(N)=O)CC34CC4)cc21 (centres unmarked)", "pIC50": "6.00 to 7.00"}
{"COMPOUND": "Cn1nc(-c2cc(C(F)(F)F)c(F)c(O)c2F)c2cnc(N3CCOCC3(C)C)cc21", "pIC50": "> 7.00"}
{"COMPOUND": "Cn1nc(-c2cc(C(F)(F)F)c(F)c(O)c2F)c2cnc(NC34CC(C3)C4)nc21", "pIC50": "> 7.00"}
{"COMPOUND": "CN(c1ncc2c(-c3cc(C(F)(F)F)c(F)c(O)c3F)nn(C)c2c1F)C1CCOCC1", "pIC50": "> 7.00"}
{"COMPOUND": "Cn1nc(-c2cc(C(F)(F)F)c(F)c(O)c2F)c2cnc(N3[C@@H]4CNC[C@H]3COC4)nc21", "pIC50": "6.00 to 7.00"}
{"COMPOUND": "Cn1nc(-c2cc(C(F)(F)F)c(F)c(O)c2F)c2cnc(N3CCOCC3CC(F)(F)F)nc21 (centres unmarked)", "pIC50": "> 7.00"}
{"COMPOUND": "Cn1nc(-c2cc(C(F)(F)F)c(F)c(O)c2F)c2cnc(N3CCO[C@@H](c4ccccc4)C3)cc21", "pIC50": "> 7.00"}

----------
- MEASURED TARGET: Recombinant human HSD17B13 enzyme (Homo sapiens)
- Sequence (Q7Z5P4 20-300): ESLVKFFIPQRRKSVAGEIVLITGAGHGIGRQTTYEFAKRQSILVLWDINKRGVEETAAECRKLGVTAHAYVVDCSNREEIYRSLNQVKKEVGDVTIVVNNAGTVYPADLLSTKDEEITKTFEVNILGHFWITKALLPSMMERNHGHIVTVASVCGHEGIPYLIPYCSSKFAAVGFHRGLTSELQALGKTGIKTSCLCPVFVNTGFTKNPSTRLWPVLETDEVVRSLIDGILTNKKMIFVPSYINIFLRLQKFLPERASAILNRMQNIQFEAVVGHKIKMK
- ASSAY NAME: HSD17b13 NAD(P)H-Glo biochemical assay
- MEASUREMENT PARAMETERS: 50 uM estradiol, 1 mM NAD+, NAD(P)H-Glo luminescence; read-out: HSD17β13 IC50
- Method: Example B-1: HSD17b13 NAD(P)H-Glo Biochemical Assay Recombinant human HSD17B13 enzyme. Substrate: estradiol (Sigma β-Estradiol E8875), 100 mM in DMSO. Cofactor: NAD+ Grade I free acid (Sigma 10127965001), 20 mM in H2O. […] Enzymatic activity detected by NAD(P)H-Glo™ Detection System (Promega G9062). […] HSD17b13 enzyme was diluted in 1× assay buffer to the desired enzyme concentration based on the specific activity of the enzyme lot. […] After incubating for 1 hour at RT, luminescence was measured.
pIC50: −log10 of the molar value.
# pIC50 per entry

{"MOLECULE": "Cn1nc(-c2cc(C(F)(F)F)c(F)c(O)c2F)c2cnc(N3CCNC4(CC4)C3)nc21 [Compound 18.18]", "MEASURED TARGET": "Recombinant human HSD17B13 enzyme (Homo sapiens)", "pIC50": "> 7.00"}
{"MOLECULE": "CC(=O)N1CCN(c2cc3c(cn2)c(-c2cc(C(F)(F)F)c(F)c(O)c2F)nn3C)C2(CC2)C1 [Compound 9.87]", "MEASURED TARGET": "Recombinant human HSD17B13 enzyme (Homo sapiens)", "pIC50": "> 7.00"}
{"MOLECULE": "Cn1nc(-c2cc(C(F)(F)F)c(F)c(O)c2F)c2cnc(N3CCS(=O)(=O)CC3C3CC3)cc21 (stereo not shown) [Compound 9.126]", "MEASURED TARGET": "Recombinant human HSD17B13 enzyme (Homo sapiens)", "pIC50": "> 7.00"}
{"MOLECULE": "Cn1nc(-c2cc(C(F)(F)F)c(F)c(O)c2F)c2cnc(N3CCOC(C)(c4ccccc4)C3)nc21 (stereo not shown) [Compound 18.119]", "MEASURED TARGET": "Recombinant human HSD17B13 enzyme (Homo sapiens)", "pIC50": "> 7.00"}
{"MOLECULE": "COCC1CN(c2cc3c(cn2)c(-c2cc(C(F)(F)F)c(F)c(O)c2F)nn3C)CCO1 (stereo not shown) [Compound 9.77]", "MEASURED TARGET": "Recombinant human HSD17B13 enzyme (Homo sapiens)", "pIC50": "> 7.00"}
{"MOLECULE": "COC(=O)N1CCN(c2ncc3c(-c4cc(C(F)(F)F)c(F)c(O)c4F)nn(C)c3n2)CC12CCC2 [Compound 20.03]", "MEASURED TARGET": "Recombinant human HSD17B13 enzyme (Homo sapiens)", "pIC50": "> 7.00"}
{"MOLECULE": "CCOC1CCN(c2ncc3c(-c4cc(C(F)(F)F)c(F)c(O)c4F)nn(C)c3n2)CC1 [Compound 18.70]", "MEASURED TARGET": "Recombinant human HSD17B13 enzyme (Homo sapiens)", "pIC50": "> 7.00"}

----------
Collected IC50 values appear next to each entry.
- MEASURED TARGET: Recombinant human HSD17B13 enzyme (Homo sapiens, UniProt Q7Z5P4)
- ASSAY NAME: HSD17b13 NAD(P)H-Glo biochemical assay
- MEASUREMENT PARAMETERS: 50 uM estradiol, 1 mM NAD+, NAD(P)H-Glo luminescence; read-out: HSD17β13 IC50

{"COMPOUND": "CCOC1(C)CCN(c2ncc3c(-c4cc(C(F)(F)F)c(F)c(O)c4F)nn(C)c3n2)CC1 [Compound 18.68]", "IC50": "< 0.1 µM"}
{"COMPOUND": "Cn1nc(-c2ccc(F)c(O)c2F)c2cnc(N3CCOC4(CCC4)C3)cc21 [Compound 9.109]", "IC50": "0.1 to 1 µM"}
{"COMPOUND": "Cn1nc(-c2cc(C(F)(F)F)c(F)c(O)c2F)c2cnc(N3CCO[C@@H](c4ccccc4)C3)nc21 [Compound 18.86]", "IC50": "< 0.1 µM"}
{"COMPOUND": "Cn1nc(-c2cc(C(F)(F)F)c(F)c(O)c2F)c2cnc(N3CCOCC34CCC4)cc21 [Compound 9.35]", "IC50": "< 0.1 µM"}
{"COMPOUND": "CCN1CCN(c2cc3c(cn2)c(-c2cc(C(F)(F)F)c(F)c(O)c2F)nn3C)C(=O)C1 [Compound 9.113]", "IC50": "0.1 to 1 µM"}
{"COMPOUND": "Cn1nc(-c2cc(C(F)(F)F)c(F)c(O)c2F)c2cnc(N3CCOC(C4CCCCC4)C3)nc21 (stereo not shown) [Compound 18.113]", "IC50": "< 0.1 µM"}
{"COMPOUND": "Cn1nccc1C1CN(c2ncc3c(-c4cc(C(F)(F)F)c(F)c(O)c4F)nn(C)c3n2)CCO1 (stereo not shown) [Compound 18.51]", "IC50": "< 0.1 µM"}
